// provenance: paper PMC4774911

target-under-test: UniProt P51817
Sequence (P51817 1-358): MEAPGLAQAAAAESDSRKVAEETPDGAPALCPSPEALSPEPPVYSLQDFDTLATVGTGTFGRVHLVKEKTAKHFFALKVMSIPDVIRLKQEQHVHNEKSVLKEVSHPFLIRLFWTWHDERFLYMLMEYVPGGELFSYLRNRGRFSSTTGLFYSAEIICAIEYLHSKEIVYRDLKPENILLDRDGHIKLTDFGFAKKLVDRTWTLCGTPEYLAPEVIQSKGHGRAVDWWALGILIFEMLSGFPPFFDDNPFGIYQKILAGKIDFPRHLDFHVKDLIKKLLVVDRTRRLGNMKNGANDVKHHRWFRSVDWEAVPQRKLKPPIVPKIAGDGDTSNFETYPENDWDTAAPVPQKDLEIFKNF
test-protocol: biochemical
protocol-conditions: read-out: KDapp
quantity-name: pKd
Scale for pKd: -log10 of concentration given in mol/L; no unit attached.

Given the entry `CN1CCN(c2ccc(Nc3ncc(C#N)c(Nc4ccccc4C(N)=O)n3)cc2)CC1.Cl` , report its measured pKd.
5.99

----------
target-under-test: DYRK1A (Homo sapiens)
quantity-name: pIC50
Scale for pIC50: -log10 of concentration given in mol/L; no unit attached.

# value lookup — system DYRK1A (Homo sapiens), readout pIC50, item CN(C)CC(O)COc1ccc(Nc2ncc([N+](=O)[O-])c(Nc3ccccc3O)n2)cc1.O=C(O)C(F)(F)F (centres unmarked) [TCMDC-141399]
5.31

----------
target-under-test: MAP3K5 (Homo sapiens, UniProt Q99683)
Sequence (Q99683 1-1374): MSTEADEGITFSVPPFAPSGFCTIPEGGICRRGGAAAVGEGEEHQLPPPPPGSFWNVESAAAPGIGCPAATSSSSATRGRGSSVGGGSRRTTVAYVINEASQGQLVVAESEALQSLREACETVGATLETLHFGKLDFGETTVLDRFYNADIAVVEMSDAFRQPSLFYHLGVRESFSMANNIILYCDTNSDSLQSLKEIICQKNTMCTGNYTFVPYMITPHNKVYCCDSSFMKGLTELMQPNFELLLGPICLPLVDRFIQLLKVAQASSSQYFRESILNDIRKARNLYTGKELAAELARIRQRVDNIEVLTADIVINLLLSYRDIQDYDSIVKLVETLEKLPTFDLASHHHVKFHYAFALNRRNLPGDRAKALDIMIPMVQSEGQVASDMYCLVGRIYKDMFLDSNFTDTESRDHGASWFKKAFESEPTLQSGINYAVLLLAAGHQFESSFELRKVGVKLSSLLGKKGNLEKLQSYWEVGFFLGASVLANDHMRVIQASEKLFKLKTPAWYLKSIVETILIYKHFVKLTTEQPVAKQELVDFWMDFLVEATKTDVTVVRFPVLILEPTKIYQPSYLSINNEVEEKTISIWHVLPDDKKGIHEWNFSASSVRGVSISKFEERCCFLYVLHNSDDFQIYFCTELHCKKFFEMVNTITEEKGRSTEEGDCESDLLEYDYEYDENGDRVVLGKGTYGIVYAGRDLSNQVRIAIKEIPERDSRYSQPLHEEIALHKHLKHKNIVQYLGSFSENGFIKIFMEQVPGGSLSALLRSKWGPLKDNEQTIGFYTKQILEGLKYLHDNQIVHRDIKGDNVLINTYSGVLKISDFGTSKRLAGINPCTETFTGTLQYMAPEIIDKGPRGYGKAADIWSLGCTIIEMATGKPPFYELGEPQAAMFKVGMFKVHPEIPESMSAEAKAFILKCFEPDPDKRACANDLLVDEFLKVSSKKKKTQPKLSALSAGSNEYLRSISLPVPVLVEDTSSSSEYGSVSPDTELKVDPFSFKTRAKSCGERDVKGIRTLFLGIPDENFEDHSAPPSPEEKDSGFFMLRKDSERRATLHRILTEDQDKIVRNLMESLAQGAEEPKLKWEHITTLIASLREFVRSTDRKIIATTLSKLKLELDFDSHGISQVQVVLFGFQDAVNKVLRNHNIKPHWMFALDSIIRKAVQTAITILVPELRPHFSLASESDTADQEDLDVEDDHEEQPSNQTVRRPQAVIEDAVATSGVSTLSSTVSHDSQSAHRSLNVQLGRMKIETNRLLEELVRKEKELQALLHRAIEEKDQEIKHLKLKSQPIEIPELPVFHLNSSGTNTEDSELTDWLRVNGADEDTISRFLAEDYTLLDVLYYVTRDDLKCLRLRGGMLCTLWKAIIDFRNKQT
quantity-name: IC50

Cl.NCC1(c2nc(-c3ccc(Cl)c(O)c3)c(-c3ccncc3)[nH]2)CCCCC1 [TCMDC-141154] : > 20 µM

Proceed to the following item.
Given the entry CN(C)CC(O)COc1ccc(Nc2ncc([N+](=O)[O-])c(Nc3ccccc3O)n2)cc1.O=C(O)C(F)(F)F (centres unmarked) [TCMDC-141399] , report its measured IC50.
> 20 µM
